These measurements were taken from paper PMC10957775.

Tmax for assorted compounds
experiment: Multi-compound pharmacokinetics of ZJTSD in rat serum, semi-quantitative UPLC-Q/TOF-MS (peak area ratio versus time, non-compartmental); settings: male, Sprague-Dawley, rat, serum (hepatic portal vein blood), po, 1 mL/100 g body weight
Numbers only; they are read as h.

COMPOUND: O=C(O)[C@@H]1CCCN1 [P26, Proline]
READOUT UNITS: h
READOUT VALUE: 0.5
//
COMPOUND: Cc1cc(O)cc2oc(CC(C)O)cc(=O)c12 (stereo not drawn) [P2]
READOUT UNITS: h
READOUT VALUE: 0.67
//
COMPOUND: O=c1ccc2cc(O)c(O)cc2o1 [P39, Esculetin]
READOUT UNITS: h
READOUT VALUE: 0.33
//
COMPOUND: COC(=O)C1CCC(=O)N1 (stereo not drawn) [P33]
READOUT UNITS: h
READOUT VALUE: 14
//
COMPOUND: CC(=O)/C=C/c1ccc(CO)o1 [P51]
READOUT UNITS: h
READOUT VALUE: 4.67

Tmax lookup needed for CCCCCCCCCCCCCCCCCC(=O)OC[C@@H](O)COP(=O)([O-])OCC[N+](C)(C)C [P45] , thanks. 2

Repeat with CSCC[C@H](N)C(=O)O [P25, L-Methionine] 2.17

Repeat with O=C1c2cccc(O)c2C(=O)c2c(O)cc(CO)cc21 [P17, Aloe-emodin] 4.17

Repeat with N[C@@H](Cc1c[nH]c2ccccc12)C(=O)O [P23, Tryptophan] 1.08

Repeat with O=C(O)c1cc(O)c2c(c1)C(=O)c1cccc(O)c1C2=O [P18, Rhein] 1.67
